# credit: PubChem BioAssay (NCI)

Experiment: NCI Yeast Anticancer Drug Screen. Data for the cln2 rad14 strain (AID 165);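 note: 0% = growth equal to vehicle treated cultures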
Settings: S. cerevisiae cln2 rad14 strain, at 50.0 µM, stronger effect = higher value
Compounds without any hit were thinned out: in the full panel of roughly 79,000, 15% have a hit.
Reported Property: growth inhibition (%)
Entry rule: numbers only, all in %.

Guide cases for growth inhibition, answers given:
{"Compound": "O=C1c2ccc(O)c(O)c2C(=O)c2cccc(O)c21", "Reported Property": "growth inhibition", "Recorded Number": 22.7}
{"Compound": "Oc1c(Br)ccc2cccnc12", "Reported Property": "growth inhibition", "Recorded Number": 88.6}
{"Compound": "CC(=O)N(C)C1=C(Sc2ccc(C)cc2)C(=O)c2ccccc2C1=O", "Reported Property": "growth inhibition", "Recorded Number": 99.5}
{"Compound": "CC(O[Si](c1ccccc1)(c1ccccc1)C(C)(C)C)[C@H](NC(=O)OC(C)(C)C)C(=O)O[Si](c1ccccc1)(c1ccccc1)C(C)(C)C (some centres not stated)", "Reported Property": "growth inhibition", "Recorded Number": 91.2}
{"Compound": "O=c1c2ccccc2[nH]c2c1[nH]c1ccccc12", "Reported Property": "growth inhibition", "Recorded Number": 83.4}

Lab note: "CN(C)/C=C(\C(=O)c1ccccc1)n1nc(-c2ccccc2)cc1-c1ccccc1" gave growth inhibition of 70.2

Lab note: "O=S(=O)(CCCl)Cc1ccccc1" gave growth inhibition of 10.7

Lab note: O=CNC(CCCC(=O)O)Cc1cc2ccccc2c2ccccc12 (configuration not stated) gave growth inhibition of 93.7

Lab note: "CCCCCCC(OCCC)OCCC" gave growth inhibition of 74

Lab note: "Cc1cc(N=Nc2ccncc2C)ccc1N" gave growth inhibition of 48.9

Lab note: "O=C1CSC(=S)N1c1ccc(I)cc1" gave growth inhibition of 83.8

Lab note: "O=C(O)Cc1ccc2c3c(cccc13)CC2" gave growth inhibition of 90.2

###

Assay: NCI Yeast Anticancer Drug Screen. Data for the rad50 strain (AID 155);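 note: 0% = growth of vehicle-only cultures of the same strain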
Details: S. cerevisiae rad50 strain growth inhibition; at 50.0 µM
This is part of a sample that, as a whole, favours compounds with a hit. Of some 79,000 tested, about 15% had one in any assay. Calls of active or inactive are those of the source. Cut-off read from the data, not from the text of the source: active = growth inhibition above about 70%; inactive = the rest.
Respond using exactly one of the listed classes: Yes (active), No (inactive)

Answered cases to consult:
{"Compound": "FC(F)(F)c1cccc(N2CCN(c3c4c(nc5ccccc35)CCCCC4)CC2)c1", "Assigned Label": "Yes"}
{"Compound": "O=c1[nH]c(=O)c2n[nH]nc2[nH]1", "Assigned Label": "No"}
{"Compound": "O=[N+]([O-])c1cccc2c(O)cccc12", "Assigned Label": "No"}
{"Compound": "O=C(COc1ccc(Cl)c(Cl)c1)Nc1ccc[n+](Cc2ccc(Cl)c(Cl)c2)c1", "Assigned Label": "Yes"}
{"Compound": "O=C(Cc1nc2ccc([N+](=O)[O-])cc2[nH]c1=O)C(=O)Nc1cc(Cl)c(Cl)cc1Cl", "Assigned Label": "No"}

Query: Assay outcome for COc1cc(C2OC(=O)c3ccccc3S2)ccc1O (stereo unspecified) : what was it?
Response: Yes

Query: Assay outcome for OCCC(CCN1CCOCC1)(c1ccccc1)C1(O)CCCC1 (stereo unspecified) : what was it?
Response: No

Query: Assay outcome for OC1CCC(COC(c2ccccc2)(c2ccccc2)c2ccccc2)O1 (stereo unspecified) : what was it?
Response: Yes

###

Test: NCI Yeast Anticancer Drug Screen. Data for the rad50 strain (AID 155);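 note: 0% = growth of vehicle-only cultures of the same strain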
Details: S. cerevisiae rad50 strain growth inhibition; at 50.0 µM; stronger effect = higher value
The panel holds about 79,000 compounds, 15% with a hit somewhere; the sample as a whole holds those more often.
Range-based classes on measured growth inhibition: Low = under 40%, Medium = from 40% up to 90%, High = 90% and over

{"Molecule": "COC12C(COC(N)=O)C3=C(C(=O)C(C)=C(N)C3=O)N1CC1C2N1C(=O)/C=C/c1ccccc1 (stereo not given)", "Assigned Label": "Medium"}

Query: Field: class (growth inhibition) — entry: "c1ccc(N=c2sc3ccccc3sc2=Nc2ccccc2)cc1"
Response: Medium

Query: Field: class (growth inhibition) — entry: "ON(C(=Nc1ccc(Cl)cc1)c1ccccc1)c1ccccc1"
Response: High

Query: Field: class (growth inhibition) — entry: "O=C(O)CSc1ccc(N=C=S)cc1"
Response: Low

Query: Field: class (growth inhibition) — entry: O=C1C(c2ccccc2)CS(=O)(=O)CC1c1ccccc1 (stereo not given)
Response: Low

Query: Field: class (growth inhibition) — entry: CC(=O)N[C@H]1CCC2[C@@H]3CCC4=CC(=O)NCC[C@]4(C)C3CC[C@@]21C (stereo not given in full)
Response: Medium

Query: Field: class (growth inhibition) — entry: NC(=S)c1cccc(C2Nc3ccccc3O2)c1 (stereo not given)
Response: Medium

Query: Field: class (growth inhibition) — entry: O=C(O)CC(C(=O)O)C(c1cccc2ccccc12)c1cccc2ccc3ccccc3c12 (stereo not given)
Response: High

Query: Field: class (growth inhibition) — entry: "COc1ccc(C)c2nc3ccccc3nc12"
Response: High

Query: Field: class (growth inhibition) — entry: "Cc1cc(N=NC(N)=S)c2ccccc2c1O"
Response: Medium

###

Assay: NCI Yeast Anticancer Drug Screen. Data for the mlh1 rad18 strain (AID 175)
Conditions: S. cerevisiae mlh1 rad18 strain growth inhibition; at 50.0 µM (retest, dose inferred, filed as 5.0); stronger effect = higher value
The panel holds about 79,000 compounds, 15% with a hit somewhere; the sample as a whole holds those more often. Active and inactive are the calls of the source. Cut-off read from the data, not from the text of the source: active = growth inhibition above about 70%; inactive = the rest.
Catalogue of growth inhibition readings, one per entry.

Guide cases for growth inhibition, answers given:
{"Molecule": "CCCC(=O)Oc1ccc([N+](=O)[O-])cc1", "growth inhibition": "13% (inactive)"}
{"Molecule": "O/N=C1/C(=C/c2ccc3c(c2)OCO3)CCCC1C(NO)c1ccc2c(c1)OCO2 (configuration not stated)", "growth inhibition": "27% (inactive)"}

Lab note: Cc1ccc(C2CC(c3cccc([N+](=O)[O-])c3)=Nc3ccccc3S2)cc1 (configuration not stated) gave growth inhibition of 29% (inactive)

Lab note: "COC(=O)/C=C/c1cccc[n+]1[O-]" gave growth inhibition of -11% (inactive)

###

Experiment: NCI Yeast Anticancer Drug Screen. Data for the mec2-1 strain (AID 157)
Conditions: S. cerevisiae mec2-1 strain, at 5.0 µM (retest, dose inferred, filed as 0.5), stronger effect = higher value
The panel holds about 79,000 compounds, 15% with a hit somewhere; the sample as a whole holds those more often.
Reported Property: growth inhibition (%)
Entry rule: numbers only, all in %.

Guide cases for growth inhibition, answers given:
{"Molecule": "CN(C)C(=S)/N=c1\\ss/c(=N\\C(=S)N(C)C)n1-c1cccc(Cl)c1", "Reported Property": "growth inhibition", "Recorded Number": 15}
{"Molecule": "CS(=O)(=O)OCCN(CCOS(C)(=O)=O)c1ccc(N=Nc2ccccc2)cc1", "Reported Property": "growth inhibition", "Recorded Number": 15}
{"Molecule": "O=C(O)/C(=C/c1ccccc1)c1ccccc1.[Ag]", "Reported Property": "growth inhibition", "Recorded Number": 100}
{"Molecule": "COc1ccccc1C(=O)c1c(C(=O)O)ccc2ccccc12", "Reported Property": "growth inhibition", "Recorded Number": -6}
{"Molecule": "O=C1OCCCOC(=O)c2cc(ccc2O)OCC#CC#CCOc2ccc(O)c1c2", "Reported Property": "growth inhibition", "Recorded Number": -4}

Lab note: O=C(O)C(Cc1ccccc1)N=Cc1ccc(O)cc1 (centres undefined) gave growth inhibition of 58

Lab note: "COC(=O)c1ccc(SCC(=O)c2ccc([N+](=O)[O-])o2)cc1" gave growth inhibition of 4

Lab note: "COc1cc(C2=NCCO2)cc(OC)c1OC" gave growth inhibition of -45

Lab note: O=c1ccn(C2OC(COC(c3ccccc3)(c3ccccc3)c3ccccc3)C(O)C2O)c(=O)[nH]1 (centres undefined) gave growth inhibition of 27

Lab note: "O=C1C(N2CCOCC2)=C(Cl)C(=O)c2ncccc21" gave growth inhibition of 30

###

Test: NCI Yeast Anticancer Drug Screen. Data for the mec2-1 strain (AID 157)
Conditions: S. cerevisiae mec2-1 strain, at 50.0 µM, stronger effect = higher value
About 79,000 compounds went through this panel and 15% of them were active in at least one assay; those are over-represented in the sample as a whole.
Range-based classes on measured growth inhibition: low-valued = under 20%, mid-valued = from 20% up to 90%, high-valued = 90% and over

Answered cases to consult:
{"Compound": "C=CCOc1ccc(/C=N/NC(N)=S)cc1", "Assigned Label": "mid-valued"}
{"Compound": "Nc1ccccc1N=Nc1c(S(=O)(=O)O)cc2cc(S(=O)(=O)O)cc(O)c2c1O", "Assigned Label": "low-valued"}
{"Compound": "ClCc1ccc2oc3ccccc3c2c1", "Assigned Label": "low-valued"}
{"Compound": "N#CSCCSCc1ccc(Cl)cc1", "Assigned Label": "high-valued"}

Query: Field: class (growth inhibition) — entry: "COc1ccc(CC2=CC(=O)C(=O)C=C2C)cc1"
Response: low-valued

Query: Field: class (growth inhibition) — entry: "CCOC(=O)C(=C=C=C(c1ccccc1)c1ccccc1)C(=O)OCC"
Response: mid-valued

Query: Field: class (growth inhibition) — entry: "CN1C(=O)c2cccc3c([N+](=O)[O-])ccc(c23)C1=O"
Response: low-valued

Query: Field: class (growth inhibition) — entry: COc1ccc(C2Oc3ccc(Cl)cc3C=C2[N+](=O)[O-])cc1OC (configuration not stated)
Response: mid-valued

Query: Field: class (growth inhibition) — entry: CN(C)C(=S)SC1(CN2CCOCC2)COc2c(Cl)cc(Cl)cc2C1=O (configuration not stated)
Response: mid-valued

Query: Field: class (growth inhibition) — entry: "Cc1c2cnccc2c(C)c2c1sc1ccccc12"
Response: mid-valued

Query: Field: class (growth inhibition) — entry: "CC(C)NC(=O)OCc1c2c(n(C)c1COC(=O)NC(C)C)-c1ccccc1CC2"
Response: high-valued
